# Tested on: 786-O
# ASSAY NAME: Euclidean distance of Cell Painting phenotypic profile (signed KS, 77 features) to DMSO centroid (dimensionless distance); 5 or 10 uM (library dependent); higher = stronger phenotypic change vs DMSO (phenoactivity)
# MEASUREMENT CONDITIONS: 48 h
Kindly supply the reported Euclidean distance values for the records listed here.

Some entries whose results are on file:
CC(=O)CCCCn1c(=O)c2c(ncn2C)n(C)c1=O; 1.07
CN(C)C(=O)[C@H](O)[C@H](Cc1ccccc1)NC(=O)c1cc2cc(Cl)ccc2[nH]1; 0.476
C[C@@H](Oc1ccc2[nH]nc(/C=C/c3cnn(CCO)c3)c2c1)c1c(Cl)cncc1Cl; 3.17

Please give Euclidean distance, item by item, for the list that follows.
1. COc1cc(C[C@H]2C(=O)OC[C@@H]2Cc2ccc(OC)c(OC)c2)ccc1O [(-)-Arctigenin]
2. CN1CCN(c2ccc(C(=O)Nc3n[nH]c4ccc(Cc5cc(F)cc(F)c5)cc34)c(NC3CCOCC3)c2)CC1 [Entrectinib (RXDX-101)]
3. CC(=O)OCC(=O)[C@@]1(O)[C@H](C)C[C@H]2[C@@H]3CCC4=CC(=O)C=C[C@]4(C)[C@@]3(F)[C@@H](O)C[C@@]21C [Dexamethasone Acetate]
4. O=c1c(-c2ccc(O)cc2)coc2cc(O[C@@H]3O[C@H](CO)[C@@H](O)[C@H](O)[C@H]3O)ccc12
5. O=c1c(O[C@@H]2O[C@H](CO)[C@@H](O)[C@H](O)[C@H]2O)c(-c2ccc(O)c(O)c2)oc2cc(O)cc(O)c12

1.04
5.06
1.08
0.57
0.868

* * *

# System: 786-O
# ASSAY NAME: Euclidean distance of Cell Painting phenotypic profile (signed KS, 77 features) to DMSO centroid (dimensionless distance); 5 or 10 uM (library dependent); higher = stronger phenotypic change vs DMSO (phenoactivity)
# MEASUREMENT CONDITIONS: 48 h
REPORTED ENDPOINT: Euclidean distance
Answers are plain numbers.

Some solved entries appear below for comparison.
O=C(NC(Cc1cc(=O)[nH]c2ccccc12)C(=O)O)c1ccc(Cl)cc1 (configuration not stated) [Rebamipide]; 1.17
c1cn2cc(-c3ccc4cn[nH]c4c3)nc(Nc3ccc(N4CCOCC4)cc3)c2n1; 2.51
CC(C)(c1ccc(O)cc1)c1ccc(O)cc1; 0.955
CN1CCN(c2cccc(Nc3nc4c(-c5ccc(S(C)(=O)=O)cc5)cccn4n3)c2)CC1; 1.38
c1ccc2c(CCNc3ccc(Nc4ccncc4)cc3)c[nH]c2c1; 2.61
CC(C)(CO)[C@@H](O)C(=O)NCCC(=O)O [D-Pantothenate Sodium]; 1.18
C[C@H](N[C@@H](CCc1ccccc1)C(=O)O)C(=O)N1CCC[C@H]1C(=O)O [Enalaprilat Dihydrate]; 1.22
O=C([O-])c1ccccc1O.[Na+] [Sodium salicylate]; 0.657
CN(NC(=O)CC(=O)NN(C)C(=S)c1ccccc1)C(=S)c1ccccc1 [Elesclomol (STA-4783)]; 5.12
NCCCC[C@@H]1NC(=O)[C@@H](Cc2ccccc2)NC(=O)[C@H](CC(=O)O)NC(=O)CNC(=O)[C@H](CCCN=C(N)N)NC1=O [Cyclo (-RGDfK)]; 2.63

Count: 6. Required value per item: Euclidean distance.
1. CN(C)c1ccc2nc3ccc(=[N+](C)C)cc-3sc2c1
2. Cc1ccc(S(=O)(=O)n2c(N)nc3ccccc32)cc1
3. CC[C@H]1OC(=O)[C@H](C)[C@@H](O[C@H]2C[C@@](C)(OC)[C@@H](O)[C@H](C)O2)[C@H](C)[C@@H](O[C@@H]2O[C@H](C)C[C@H](N(C)C)[C@H]2O)[C@](C)(OC)C[C@@H](C)C(=O)[C@H](C)[C@@H](O)[C@]1(C)O
4. Cc1cc2ncnn2cc1Nc1ncc2c(n1)n(C1CCOCC1)c(=O)n2C
5. CN(C)CCOC(C)(c1ccccc1)c1ccccn1 (configuration not stated) [Doxylamine Succinate]
6. CCc1ccc(CCOc2ccc(CC3SC(=O)NC3=O)cc2)nc1 (configuration not stated)

1: 2.57; 2: 0.771; 3: 0.952; 4: 1.35; 5: 1.09; 6: 0.465

Fill in Euclidean distance for "O=C1c2cccc(O)c2C(=O)c2c(O)cccc21" tested with 786-O.
1.02

* * *

# System: HEPG2
# ASSAY NAME: Euclidean distance of Cell Painting phenotypic profile (signed KS, 77 features) to DMSO centroid (dimensionless distance); 5 or 10 uM (library dependent); higher = stronger phenotypic change vs DMSO (phenoactivity)
# MEASUREMENT CONDITIONS: 48 h
Counter-ions that a name gives are not always drawn.
Mark N for Euclidean distance values under 0.8, and Y for everything at or above.

C/C=C1\[C@H]2C=C(C)C[C@]1(N)c1ccc(=O)[nH]c1C2 [(-)-Huperzine A (HupA)]; N
COc1cc(OC)c2c(=O)[nH]c(-c3cc(C)c(OCCO)c(C)c3)nc2c1 [Apabetalone (RVX-208)]; N
CC(C)CC(N)=O [Isovaleramide]; Y
Nc1nc2c(ncn2COCCO)c(=O)[nH]1; Y
COc1ccc(Cc2cnc(N)nc2N)cc1OC; N
O=c1[nH]c(=O)n([C@H]2C[C@H](O)[C@@H](CO)O2)cc1C(F)(F)F; Y
NS(=O)(=O)c1cc2c(cc1Cl)NC(C1CC3C=CC1C3)NS2(=O)=O (centres undefined) [Cyclothiazide]; N
Nc1c2c(nc3ccccc13)CCCC2 [Tacrine HCl]; N

Turning now to a further compound:
Please indicate if the recorded Euclidean distance for "COc1ccc(CNc2nc(N3CCC[C@H]3CO)ncc2C(=O)NCc2ncccn2)cc1Cl" meets or exceeds 0.8.
N

* * *

# System: A549
# ASSAY NAME: Euclidean distance of Cell Painting phenotypic profile (signed KS, 77 features) to DMSO centroid (dimensionless distance); 5 or 10 uM (library dependent); higher = stronger phenotypic change vs DMSO (phenoactivity)
# MEASUREMENT CONDITIONS: 48 h
Would you mind telling me the reported Euclidean distance of each entry?
Give bare numbers.

CC(C)(C)[C@@H]1NC(=O)O[C@@H]2CCC[C@H]2OC/C=C/C(F)(F)c2nc3ccccc3nc2O[C@@H]2C[C@@H](C(=O)N[C@]3(C(=O)NS(=O)(=O)C4(C)CC4)C[C@H]3C(F)F)N(C2)C1=O; 1.22
CC(C)n1c(/C=C/C(O)CC(O)CC(=O)O)c(-c2ccc(F)cc2)c2ccccc21 (stereo not drawn) [Fluvastatin Sodium]; 2.4
O=C1C(O)=C([C@H]2CC[C@H](c3ccc(Cl)cc3)CC2)C(=O)c2ccccc21; 0.846
CC(C)(C)OC(=O)N[C@H]1CCCCC/C=C\[C@@H]2C[C@@]2(C(=O)NS(=O)(=O)C2CC2)NC(=O)[C@@H]2C[C@@H](OC(=O)N3Cc4cccc(F)c4C3)CN2C1=O; 0.94
CN1C(C(=O)Nc2ccccn2)=C(O)c2sc(Cl)cc2S1(=O)=O; 0.623
C[C@@]1(c2cc(-c3cncnc3)c(F)cc2F)CCSC(N)=N1; 1.07
CCn1cc(C(=O)O)c(=O)c2cnc(N3CCNCC3)nc21; 0.855
Cc1cc(NC(=O)Nc2ccc(N(C)C)cc2)c2cc(F)cc(F)c2n1; 1.16
COc1ccccc1[C@H](Cn1c(=O)n(C(C)(C)C(=O)O)c(=O)c2c(C)c(-c3ncco3)sc21)OC1CCOCC1; 0.95
CSCC1CN(/N=C/c2ccc([N+](=O)[O-])o2)C(=O)O1 (stereo not drawn); 0.74

Dear colleague, could you please provide Euclidean distance for the compounds listed below?
1. O=c1ccn(C2OC(COP(=O)(O)O)C(O)C2O)c(=O)[nH]1 (stereo not drawn) [Uridine 5'-monophosphate]
2. COc1ccccc1OCCNCC(O)COc1cccc2[nH]c3ccccc3c12 (stereo not drawn) [Carvedilol Phosphate]
3. CCCCC[C@H](O)/C=C/[C@H]1[C@H](O)CC(=O)[C@@H]1CCCCCCC(=O)O

1: 1.21; 2: 2.28; 3: 0.929

* * *

# System: FB
# ASSAY NAME: Euclidean distance of Cell Painting phenotypic profile (signed KS, 77 features) to DMSO centroid (dimensionless distance); 5 or 10 uM (library dependent); higher = stronger phenotypic change vs DMSO (phenoactivity)
# MEASUREMENT CONDITIONS: 48 h
# label = T if Euclidean distance >= 0.9 else F

COc1ccccc1OCC(O)CO (stereo not given); T
NC(=O)c1cccc(-c2cccc(OC(=O)NC3CCCCC3)c2)c1; T
COc1cc(C(=O)NC2CCCNC2)cc(OC)c1OC (stereo not given) [Troxipide]; F
CCOC(=O)CCNc1cc(N2CCc3ccccc3CC2)nc(-c2ccccn2)n1; T

Please indicate if the recorded Euclidean distance for Oc1c(I)cc(I)c2cccnc12 [Diiodohydroxyquinoline] meets or exceeds 0.9.
T

hey, is Euclidean distance for this one >= 0.9? "O=S(=O)(NCCNC/C=C/c1ccc(Br)cc1)c1cccc2cnccc12"
T

hey, is Euclidean distance for this one >= 0.9? "C=CC(=O)Nc1ccc2ncnc(Nc3ccc(OCc4cccc(F)c4)c(Cl)c3)c2c1"
T

Given "CCCCc1nc(C)c(CC(=S)N(C)C)c(=O)n1Cc1ccc(-c2ccccc2-c2nnn[nH]2)cc1" , state whether its Euclidean distance is at least 0.9.
F

Quick check: does "O=C(O)/C=C/c1cnc[nH]1" have Euclidean distance greater than or equal to 0.9?
F

Quick check: does "OCCOCCN1CCN(C2=Nc3ccccc3Sc3ccccc32)CC1" have Euclidean distance greater than or equal to 0.9?
F
